# Tested on: Staphylococcus aureus ATCC 29213; reference strain MSSA
# ASSAY TEXT: Antimicrobial spectrum, broth microdilution MIC
# Type: cell-based
# CONDITION DETAILS: S. aureus ATCC 29213
This section presents compounds with their documented MIC90 values.
ENDPOINT NAME: MIC90 (µg/mL)

COMPOUND	READING
O=C1CCc2cc(/C=C/C(=O)N3CC4C=C(c5ccsc5)CC4C3)cnc2N1 (stereo not drawn)	0.015
O=C1CCc2cc(/C=C/C(=O)N3C[C@@H]4CN(c5ccccc5)C[C@@H]4C3)cnc2N1	0.25
O=C1CCc2cc(/C=C/C(=O)N3CC4C=C(c5ccccc5)CC4C3)cnc2N1 (stereo not drawn)	0.016
O=C1CCc2cc(/C=C/C(=O)N3CC4C=C(c5ccncc5)CC4C3)cnc2N1 (stereo not drawn)	0.125
O=C1CCc2cc(/C=C/C(=O)N3C[C@@H]4CC(c5ccccc5)=C[C@@H]4C3)cnc2N1 (single isomer, unassigned)	0.03
O=C1CCc2cc(/C=C/C(=O)N3CC4C=C(c5ccoc5)CC4C3)cnc2N1 (stereo not drawn)	0.06

---

# ASSAY TEXT: In vivo pharmacokinetic and oral bioavailability
# CONDITION DETAILS: i.v. 2.5 mg/kg, male Swiss mice

MOLECULE	Half life (t1/2) [h]
O=C1CCc2cc(/C=C/C(=O)N3C[C@@H]4CC(c5ccccc5)=C[C@@H]4C3)cnc2N1 (single isomer, unassigned) [compound 14]	2.7
O=C1CCc2cc(/C=C/C(=O)N3CC4C=C(c5ccccc5)CC4C3)cnc2N1 (stereo not shown) [compound 1]	2.9
O=C1CCc2cc(/C=C/C(=O)N3CC4C=C(c5ccncc5)CC4C3)cnc2N1 (stereo not shown) [compound 12]	1.1
O=C1CCc2cc(/C=C/C(=O)N3CC4C=C(c5ccsc5)CC4C3)cnc2N1 (stereo not shown) [compound 10]	1.3

---

# TARGET DESC: S. aureus ATCC 29213 FabI (Staphylococcus aureus (strain MRSA252))
# ASSAY TEXT: Staphylococcus aureus FabI enzyme inhibition assay
# Assay type: biochemical
# CONDITION DETAILS: pH 6.5, 30 minutes at room temperature

MOLECULE	TARGET DESC	FabI IC50 / µg/mL
O=C1CCc2cc(/C=C/C(=O)N3C[C@@H]4CN(c5ccccc5)C[C@@H]4C3)cnc2N1 [compound 2]	S. aureus ATCC 29213 FabI (Staphylococcus aureus (strain MRSA252))	0.78
O=C1CCc2cc(/C=C/C(=O)N3CC4C=C(c5ccsc5)CC4C3)cnc2N1 (centres unmarked) [compound 10]	S. aureus ATCC 29213 FabI (Staphylococcus aureus (strain MRSA252))	0.53
O=C1CCc2cc(/C=C/C(=O)N3CC4C=C(c5cccs5)CC4C3)cnc2N1 (centres unmarked) [compound 3]	S. aureus ATCC 29213 FabI (Staphylococcus aureus (strain MRSA252))	0.29
Cn1cc(C2=CC3CN(C(=O)/C=C/c4cnc5c(c4)CCC(=O)N5)CC3C2)cn1 (centres unmarked) [compound 27]	S. aureus ATCC 29213 FabI (Staphylococcus aureus (strain MRSA252))	0.6
O=C1CCc2cc(/C=C/C(=O)N3C[C@H]4CC(Oc5ccccc5)C[C@H]4C3)cnc2N1 (some centres unmarked) [compound 54]	S. aureus ATCC 29213 FabI (Staphylococcus aureus (strain MRSA252))	1.84
O=C1CCc2cc(/C=C/C(=O)N3CC4CC(n5cncn5)CC4C3)cnc2N1 (centres unmarked) [compound 37]	S. aureus ATCC 29213 FabI (Staphylococcus aureus (strain MRSA252))	3.37
O=C1CCc2cc(/C=C/C(=O)N3CC4C=C(c5nccs5)CC4C3)cnc2N1 (centres unmarked) [compound 32]	S. aureus ATCC 29213 FabI (Staphylococcus aureus (strain MRSA252))	0.46
O=C1CCc2cc(/C=C/C(=O)N3C[C@H]4CC(c5ccccc5)=C[C@H]4C3)cnc2N1 (single isomer, unassigned) [compound 13]	S. aureus ATCC 29213 FabI (Staphylococcus aureus (strain MRSA252))	0.39
